TESTED SYSTEM: Melanocortin receptor 5 (Homo sapiens)
Sequence (P33032 whole entry): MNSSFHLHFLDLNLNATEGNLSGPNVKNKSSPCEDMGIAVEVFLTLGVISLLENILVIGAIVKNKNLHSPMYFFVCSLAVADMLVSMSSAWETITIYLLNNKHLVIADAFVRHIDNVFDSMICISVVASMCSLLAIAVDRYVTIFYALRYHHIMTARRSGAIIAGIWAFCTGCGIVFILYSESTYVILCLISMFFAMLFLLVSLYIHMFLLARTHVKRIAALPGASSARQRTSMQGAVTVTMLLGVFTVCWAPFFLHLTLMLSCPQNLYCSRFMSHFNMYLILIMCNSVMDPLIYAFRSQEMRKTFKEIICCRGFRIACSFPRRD
PROTOCOL: […] at human MC5R assessed as stimulation of cAMP production
Format: functional
Design: concentration or dose not given beside the values
QUANTITY MEASURED: Activity

# annotated cases, reported Activity shown
- RECORD SMILES: "Cn1nnnc1CC1(C2CCOCC2)CCN(C(=O)[C@H](Cc2ccc(Cl)cc2)NC(=O)[C@H]2Cc3ccccc3CN2)CC1"
  Activity: "18%"
- RECORD SMILES: "CN1CCN[C@@H](C(=O)N[C@@H](Cc2ccc(F)cc2)C(=O)N2CCC(C(=O)NC(C)(C)C)(C3CCCCC3)CC2)C1"
  Activity: "31%"
- RECORD SMILES: "Cn1nnnc1CC1(Cc2ccccc2)CCN(C(=O)[C@H](Cc2ccc(Cl)cc2)NC(=O)[C@H]2Cc3ccccc3CN2)CC1"
  Activity: "20%"

Task item: What measured Activity goes with Cn1nnnc1CC1(c2ccc(Cl)cc2)CCN(C(=O)[C@H](Cc2ccc(Cl)cc2)NC(=O)[C@H]2Cc3ccccc3CN2)CC1 ?
Reply: 17%

The measured values listed here are drawn from ChEMBL document CHEMBL1139816.
